# target-desc: T1, human ACVR2A (human, UniProt P27037 20-135, limits assumed); also: test concentration or dose not given here
# T1 construct: also called activin receptor, type II A
# T1 sequence (P27037 20-135 limits assumed): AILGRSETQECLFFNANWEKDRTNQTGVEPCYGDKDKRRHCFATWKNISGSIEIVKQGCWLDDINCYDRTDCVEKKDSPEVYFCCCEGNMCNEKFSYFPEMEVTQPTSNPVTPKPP
# assay-procedure: ELISA
measure-name: optical density (OD)
One number for each entry, in OD.

Here's what some known entries look like.
binder: 375_F12 (antibody, V domains shown, Group I) VH: EVQLLESGGGLVQPGGSLRLSCAASGFTFDSYGMHWVRQAPGKGLEWVASINYNGGYTSYADSVKGRFTISRDNSKNTLYLQMNSLRAEDTAVYYCARAANWHDTALDYWGQGTLVTVSS VL: DIQMTQSPSSLSASVGDRVTITCRASQSILTYLNWYQQKPGKAPKLVIYAATSRASGVPSRFSGSGSGTDFTLTISSLQPEDFATYYCQQSDELPLTFGGGTKVEIK
optical density, OD: 2.95

binder: 368_C12 (antibody, V domains shown, Group II) VH: EVQLLESGGGLVQPGGSLRLSCAASGFTFDSYGMHWVRQAPGKGLEWVASINYNGGYTSYADSVKGRFTISRDNSKNTLYLQMNSLRAEDTAVYYCARAATWHDTHLDYWGQGTLVTVSS VL: DIQMTQSPSSLSASVGDRVTITCRASQSILTYLNWYQQKPGKAPKLLIYAATSRASGVPSRFSGSGSGTDFTLTISSLQPEDFATYYCQQSDSNPLTFGGGTKVEIK
optical density, OD: 2.49

Here's the next entry for you.
Record summary for 366_A02 (antibody, V domains shown, Group I) VH: EVQLLESGGGLVQPGGSLRLSCAASGFTFDSYGMNWVRQAPGKGLEWVASINYNSGYKGYADSVKGRFTISRDNSKNTLYLQMNSLRAEDTAVYYCARAANWHDTHLDYWGQGTLVTVSS VL: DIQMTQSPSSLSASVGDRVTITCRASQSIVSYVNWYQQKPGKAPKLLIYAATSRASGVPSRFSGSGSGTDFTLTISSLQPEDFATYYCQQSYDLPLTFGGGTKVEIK : reported optical density = 2.45
